# key: entry, value: SH2 binding enrichment
# measuredOn: SHP2-C SH2
# testDescription: SH2 binding enrichment of the phosphorylated peptide, bacterial display (enrichment ratio); higher = better substrate or ligand; peptides without Tyr show the background
Answer with the value's number alone.

Some sequences with recorded SH2 binding enrichment:
* QCTSAYLLQPE [NANS_Y188_P189L] | 0.922
* QTEAQYRFIFM [PTPN11_Y511_YF] | 0.777

// SH2 binding enrichment lookup, key: GLIPAYHRFIM [NMNAT1_Y64_V67F] 1.37

// SH2 binding enrichment lookup, key: GGGMIYPLDLF 0.562

// SH2 binding enrichment lookup, key: STSKTYVISQT [RBBP6_Y87_R91Q] 0.578

// SH2 binding enrichment lookup, key: GSQERDFELVE [TSC2_Y407_Y407D] 0.612

// SH2 binding enrichment lookup, key: RSAGKYDVYFI [MECP2_Y120_L124F] 0.804

// SH2 binding enrichment lookup, key: ANYTEYVATRW [CDKL5_Y171] 0.998

* * *

# Tested on: c-Src
# testDescription: phosphorylation enrichment, bacterial display (enrichment ratio); higher = better substrate or ligand; peptides without Tyr show the background
# key: entry, value: phosphorylation enrichment
Answer with the value's number alone.

Some sequences with recorded phosphorylation enrichment:
* TSIGNYFKPWF [DHCR24_Y299_N294T_YF] | 0.348
* KRLKDYLTVLQ [USP25_Y425] | 0.403
* LDTIQYSKHPP [SQSTM1_Y433] | 0.649
* TLPAFYMENFS [GLB1_Y552_G554E] | 0.735
* HILFRYPKEFQ [IDS_Y234_P231L] | 1.64

// phosphorylation enrichment lookup, key: EKEKEYMLPLD [DNM2_Y563_K562E] 0.358

// phosphorylation enrichment lookup, key: ISKKRYAGLLF [POLD1_Y809] 0.462

// phosphorylation enrichment lookup, key: YHRQLYHKCTH [F12_Y58] 0.481

* * *

# Tested on: AncSZ
# testDescription: phosphorylation enrichment, bacterial display (enrichment ratio); higher = better substrate or ligand; peptides without Tyr show the background
Please note: true (1) applies when phosphorylation enrichment is 0.9 or greater, and false (0) applies otherwise.

For orientation, consider the following solved cases.
• ATARPYRPFII [LRP5_Y1528_YF] = false (0)
• RIDRKYKKVRF [F8_Y442_G439D] = true (1)
• MASISYDYCRV [BST2_Y6_T4I] = true (1)
• TDLAYYLVCKG [ASL_Y376_R379C] = true (1)
• QCTSAYLLQPE [NANS_Y188_P189L] = true (1)

Check if phosphorylation enrichment >= 0.9 (inclusive). Item: ERPGVHTNVVE [F11_Y608_Y608H] false (0)

Check if phosphorylation enrichment >= 0.9 (inclusive). Item: RLGVTYEQALA [MAP2_Y996_G991R] true (1)

Check if phosphorylation enrichment >= 0.9 (inclusive). Item: SKNSKCNAEST [PSEN1_Y315_Y315C] false (0)

Check if phosphorylation enrichment >= 0.9 (inclusive). Item: RLLRGYDQLAY [HLA-C_Y137_S140L] true (1)

Check if phosphorylation enrichment >= 0.9 (inclusive). Item: CTTIHYNDMCN [TP53_Y234_Y236D] true (1)

Check if phosphorylation enrichment >= 0.9 (inclusive). Item: DAHFTYSRYPW [LY75_Y888_D884A] true (1)

Check if phosphorylation enrichment >= 0.9 (inclusive). Item: YKEQGYHRLPP [RIN1_Y681] false (0)

Check if phosphorylation enrichment >= 0.9 (inclusive). Item: SNFRAYATEPQ [TNNI3_Y29_H34Q_YF] false (0)

* * *

# measuredOn: EPHB2 (UniProt P29323)
# Sequence (P29323 whole entry, looked up): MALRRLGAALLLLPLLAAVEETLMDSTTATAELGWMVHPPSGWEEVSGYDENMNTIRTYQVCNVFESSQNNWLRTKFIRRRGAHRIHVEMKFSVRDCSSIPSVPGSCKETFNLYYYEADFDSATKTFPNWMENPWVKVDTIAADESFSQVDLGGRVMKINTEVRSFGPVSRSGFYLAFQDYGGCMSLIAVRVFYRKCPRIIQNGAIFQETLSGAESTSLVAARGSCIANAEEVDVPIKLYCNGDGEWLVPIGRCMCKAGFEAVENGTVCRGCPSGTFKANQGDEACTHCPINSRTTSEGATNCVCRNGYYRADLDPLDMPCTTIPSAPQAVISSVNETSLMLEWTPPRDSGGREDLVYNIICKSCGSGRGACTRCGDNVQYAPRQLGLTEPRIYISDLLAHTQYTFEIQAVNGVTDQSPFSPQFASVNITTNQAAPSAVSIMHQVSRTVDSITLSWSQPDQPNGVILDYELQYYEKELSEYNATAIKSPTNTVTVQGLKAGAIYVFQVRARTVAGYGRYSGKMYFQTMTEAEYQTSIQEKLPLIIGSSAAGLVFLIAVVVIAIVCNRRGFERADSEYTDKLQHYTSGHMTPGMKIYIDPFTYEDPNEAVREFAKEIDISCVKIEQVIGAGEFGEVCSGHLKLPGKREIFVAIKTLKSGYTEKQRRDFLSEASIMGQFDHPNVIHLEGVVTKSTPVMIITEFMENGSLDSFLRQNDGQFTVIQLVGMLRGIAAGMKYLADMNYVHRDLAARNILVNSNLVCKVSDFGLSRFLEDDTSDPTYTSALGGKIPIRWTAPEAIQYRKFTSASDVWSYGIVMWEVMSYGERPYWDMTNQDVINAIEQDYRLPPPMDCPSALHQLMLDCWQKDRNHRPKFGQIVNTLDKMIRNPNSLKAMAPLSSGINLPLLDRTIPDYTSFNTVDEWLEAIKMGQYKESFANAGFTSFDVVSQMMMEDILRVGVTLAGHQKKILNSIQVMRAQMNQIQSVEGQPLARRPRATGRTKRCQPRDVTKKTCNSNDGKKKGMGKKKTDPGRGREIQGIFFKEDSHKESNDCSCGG
# testDescription: phosphorylation enrichment, bacterial display (enrichment ratio); higher = better substrate or ligand; peptides without Tyr show the background
propertyMeasured: phosphorylation enrichment
Answer with the value's number alone.

* KLIETYSSKNY [PLP1_Y50_F51S] | 0.759
* GVASDYKCIDP [VPS13B_Y1991] | 0.589

# returns recorded phosphorylation enrichment (system: EPHB2 (UniProt P29323)) for AMCVCYDGVEV [ADAMTSL2_Y594_R593C] 0.589

# returns recorded phosphorylation enrichment (system: EPHB2 (UniProt P29323)) for TAGFIYEKWEI [TEC_Y360_S359I] 1.45

# returns recorded phosphorylation enrichment (system: EPHB2 (UniProt P29323)) for EIVHRYVELLD [AP1S3_Y87] 0.53

# returns recorded phosphorylation enrichment (system: EPHB2 (UniProt P29323)) for QPTPGYEVGQR [TSC2_Y1788_E1783Q] 0.474

# returns recorded phosphorylation enrichment (system: EPHB2 (UniProt P29323)) for LTTPTYGDLNH [TUBB_Y222] 1.44

# returns recorded phosphorylation enrichment (system: EPHB2 (UniProt P29323)) for RQNRFYDAKVR [FKBP6_Y188] 0.432

* * *

# measuredOn: c-Src SH2
# testDescription: SH2 binding enrichment of the phosphorylated peptide, bacterial display (enrichment ratio); higher = better substrate or ligand; peptides without Tyr show the background
# key: entry, value: SH2 binding enrichment

Some sequences with recorded SH2 binding enrichment:
• CTTIHYNDMCN [TP53_Y234_Y236D] = 2.42
• RIDRKYKKVRF [F8_Y442_G439D] = 0.656
• KSSDVYVSYDY [SORL1_Y136] = 1.18
• KASVDYIRKLQ [MITF_Y360] = 0.454
• LYEDRYLLGTS [ASS1_Y87] = 0.546
• VNYGAYINYFK [GLB1_Y488_D491Y] = 1.23

We next turn to a different sequence, shown below.
// SH2 binding enrichment lookup, key: FSKTQYNQVPR [CXADR_Y318_S323R_YF] 0.64

* * *

# measuredOn: FGFR3 (UniProt P22607)
# Sequence (P22607 whole entry, looked up): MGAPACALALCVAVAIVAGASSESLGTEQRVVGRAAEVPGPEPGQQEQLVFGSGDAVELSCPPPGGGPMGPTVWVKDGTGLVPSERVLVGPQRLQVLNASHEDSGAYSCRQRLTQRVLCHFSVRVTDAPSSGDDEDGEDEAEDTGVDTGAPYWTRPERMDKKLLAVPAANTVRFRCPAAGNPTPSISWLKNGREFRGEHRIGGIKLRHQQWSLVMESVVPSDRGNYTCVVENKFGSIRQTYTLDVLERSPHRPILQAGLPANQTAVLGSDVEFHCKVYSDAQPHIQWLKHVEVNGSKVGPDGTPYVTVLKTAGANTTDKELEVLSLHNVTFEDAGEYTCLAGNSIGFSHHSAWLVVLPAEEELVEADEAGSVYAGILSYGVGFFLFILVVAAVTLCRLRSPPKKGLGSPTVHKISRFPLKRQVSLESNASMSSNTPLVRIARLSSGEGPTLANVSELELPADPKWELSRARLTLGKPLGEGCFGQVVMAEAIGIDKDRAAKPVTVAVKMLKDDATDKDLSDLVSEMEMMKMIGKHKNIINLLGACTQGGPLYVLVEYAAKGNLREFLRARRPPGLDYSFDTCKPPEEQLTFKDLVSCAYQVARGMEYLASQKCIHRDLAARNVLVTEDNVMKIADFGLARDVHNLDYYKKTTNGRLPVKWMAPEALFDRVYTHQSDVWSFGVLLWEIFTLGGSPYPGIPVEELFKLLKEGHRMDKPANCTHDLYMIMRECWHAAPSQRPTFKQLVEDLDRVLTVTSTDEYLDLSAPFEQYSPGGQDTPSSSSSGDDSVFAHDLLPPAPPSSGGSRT
# testDescription: phosphorylation enrichment, bacterial display (enrichment ratio); higher = better substrate or ligand; peptides without Tyr show the background
Please note: 1 applies when phosphorylation enrichment is 0.5 or greater, and 0 applies otherwise.

For orientation, consider the following solved cases.
• GFITSYREEEQ = 1
• RQLEIYRASRP [ERCC4_Y594] = 0
• MSSLYYANALF [HOXB7_Y6_T9A] = 1
• TAALWYIFLHT [ENG_Y612_S615L_YF] = 1
• ADRARYSAFGG [RBM4_Y361] = 0
• NKEAICSGFIR [SMCHD1_Y283_Y283C_YF] = 1
• EATKGYLDDPT [G6PD_Y322] = 1
• EKRDAYVSCLN [GSR_Y150_R153C] = 1
• KLSCSYSHLSA [C4BPA_Y470_W473L] = 1
• CSTIHYNYMCN [TP53_Y234_T230S] = 1

Check if phosphorylation enrichment >= 0.5 (inclusive). Item: SSREGYVRHHN [FAM83B_Y433_S435R] 0

Check if phosphorylation enrichment >= 0.5 (inclusive). Item: SLLPDYEDEEE [ZNF830_Y159] 1

Check if phosphorylation enrichment >= 0.5 (inclusive). Item: ADEDIYGVLPA [LYNtide_2014] 1

Check if phosphorylation enrichment >= 0.5 (inclusive). Item: GEFHVYRHLRR [PRKRIP1_Y82] 1

Check if phosphorylation enrichment >= 0.5 (inclusive). Item: TISPYYRQSLF [CRYAA_Y48] 1

Check if phosphorylation enrichment >= 0.5 (inclusive). Item: KANEFYPVVLI [ADAMTS18_Y765_YF] 1

* * *

# Tested on: Fer (mouse)
# testDescription: phosphorylation enrichment, bacterial display (enrichment ratio); higher = better substrate or ligand; peptides without Tyr show the background
Please note: met applies when phosphorylation enrichment is 0.4 or greater, and not met applies otherwise.

• SYCYRYRCAAQ [SUMF1_Y344_R349Q] = not met
• WRPFGYPHRRR [BCS1L_Y181_R183H] = met
• ATHSRYRLNDY [CLDN14_Y233_G232R] = not met
• IVAREYFSKAD [CAMK2B_Y107_E110K_YF] = not met

Kindly consider the entry below.
Check if phosphorylation enrichment >= 0.4 (inclusive). Item: VIKSSYQVAKA [CPT1B_Y534_E531K] not met

* * *

# measuredOn: MERTK (UniProt Q12866)
# Sequence (Q12866 whole entry, looked up): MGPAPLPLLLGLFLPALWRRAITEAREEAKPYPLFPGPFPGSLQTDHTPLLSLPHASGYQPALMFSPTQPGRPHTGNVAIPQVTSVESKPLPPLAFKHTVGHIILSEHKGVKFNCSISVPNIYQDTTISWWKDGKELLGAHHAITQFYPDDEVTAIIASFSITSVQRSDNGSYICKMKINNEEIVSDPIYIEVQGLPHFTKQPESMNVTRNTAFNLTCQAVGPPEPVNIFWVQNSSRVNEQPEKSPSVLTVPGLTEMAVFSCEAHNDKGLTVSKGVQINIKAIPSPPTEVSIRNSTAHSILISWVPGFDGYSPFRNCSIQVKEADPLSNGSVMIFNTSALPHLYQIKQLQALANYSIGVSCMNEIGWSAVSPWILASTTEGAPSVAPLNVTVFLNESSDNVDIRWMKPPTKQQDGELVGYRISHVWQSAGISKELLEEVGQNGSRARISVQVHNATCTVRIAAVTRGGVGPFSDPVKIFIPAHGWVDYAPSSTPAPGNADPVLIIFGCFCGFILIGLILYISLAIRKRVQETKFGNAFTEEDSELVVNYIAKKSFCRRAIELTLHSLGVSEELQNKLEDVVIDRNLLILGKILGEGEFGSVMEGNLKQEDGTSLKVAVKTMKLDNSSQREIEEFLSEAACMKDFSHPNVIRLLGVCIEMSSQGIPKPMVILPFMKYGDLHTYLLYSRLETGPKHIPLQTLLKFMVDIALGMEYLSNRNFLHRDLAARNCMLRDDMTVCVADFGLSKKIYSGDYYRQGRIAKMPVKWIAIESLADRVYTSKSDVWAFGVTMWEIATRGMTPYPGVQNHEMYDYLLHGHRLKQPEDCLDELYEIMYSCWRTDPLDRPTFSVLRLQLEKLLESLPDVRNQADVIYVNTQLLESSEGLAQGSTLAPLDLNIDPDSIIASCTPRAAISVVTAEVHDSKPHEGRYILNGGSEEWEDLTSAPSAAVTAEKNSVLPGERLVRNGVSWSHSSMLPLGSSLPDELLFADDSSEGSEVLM
# testDescription: phosphorylation enrichment, bacterial display (enrichment ratio); higher = better substrate or ligand; peptides without Tyr show the background
// class assignment uses phosphorylation enrichment with these ranges: lower segment (below 0.5), middle segment (0.5 to below 0.6), upper segment (0.6 or more)

For orientation, consider the following solved cases.
* NKVKFYIPYMN [NCR1_Y84_D87Y] | lower segment
* AALSAYAPQRP [PTPRN2_Y249_A251P] | middle segment
* VEDQYYRVDCY [FHL1_Y208_C209R] | upper segment
* TLQRMYGCDVG [HLA-B_Y123_S121R] | middle segment
* ILNANYMAKRL [GLDC_Y839] | lower segment

Could you place PNQRRYVYYYS [PTEN_Y174_S170N] in its proper category? Many thanks. upper segment

Could you place ILTFKYLQIPM [KIT_Y547_K550I_YF] in its proper category? Many thanks. lower segment

Could you place LYRYGYANTSE [SI_Y1233_C1229Y] in its proper category? Many thanks. lower segment

All figures here come from the supplement of paper PMC10065799.
